assay.text: chemical genetic growth profiling, strain panel (AID 1159580);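 further: tested at 20 µM; growth read once vehicle control cultures reached saturation at 30 °C; lower values mean less growth of the strain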
reported.conditions: S. cerevisiae deletion strains, growth OD, locus YMR129W
Among all 5,500 compounds or so, about 2,000 (36%) were called active. Inconclusive results (about 18%) are left out. No stated cut-off is given here; in the data, active means normalized growth mostly below about 0.91 (no sharp cut-off); inconclusive means no clear call, values can overlap the other calls; inactive means mostly above about 0.92. The list shows a part of the results.
Use one of these outcomes when replying: active, inactive

GET /call?item= O=C1[C@H](CCC(O)c2ccc(F)cc2)[C@@H](c2ccc(O)cc2)N1c1ccc(F)cc1 (stereo partly specified) returns the recorded outcome of this test.
inactive

Recorded call for "O=C1NC(=O)C(=O)C(=O)N1" ?
inactive

Status in this test for C=CCSCC1Nc2cc(Cl)c(S(N)(=O)=O)cc2S(=O)(=O)N1 (stereo unspecified) ?
inactive

# fetch the recorded call for CC(C)NCC(O)c1cc(O)cc(O)c1 (stereo unspecified) here
inactive

Test call, this compound: "CC[N+](CC)(CC)CCOc1cccc(OCC[N+](CC)(CC)CC)c1OCC[N+](CC)(CC)CC"
inactive

Which result was noted for this compound in the test: "CCOC(=O)[C@H](CCc1ccccc1)N[C@@H](C)C(=O)N1[C@H](C(=O)O)C[C@@H]2CCC[C@@H]21"
inactive

// return assay outcome for CCCCCCCCCCCCCCCC(=O)OC1C(SC)OC(C(NC(=O)C2CC(CCC)CN2C)C(C)Cl)C(O)C1O (stereo unspecified)
inactive

Short answer needed: outcome of this test for C=C1C(=O)O[C@@H]2C3O[C@]3(C)CC/C=C(\C)CC[C@@H]12 (stereo partly specified) ?
inactive

Please indicate how the test categorized "CC(C)[C@@H]1CC[C@@H](C)C[C@H]1O" .
inactive

# fetch the recorded call for C=C1C(=O)OC2CC1C(OC(C)=O)C/C(C)=C/CC/C(C)=C/CC[C@]2(C)O (stereo partly specified) here
inactive

Status in this test for CC(C(=O)O)c1ccc(C(=O)c2cccs2)cc1 (stereo unspecified) ?
inactive

// param item: CO[C@@]1(NC(=O)CSCC#N)C(=O)N2C(C(=O)O)=C(CSc3nnnn3C)CSC21 (stereo partly specified) ; yields the recorded call
inactive

// param item: "C[C@H]1COC2=C1C(=O)C(=O)c1c2ccc2c1CCCC2(C)C" ; yields the recorded call
active

Hey, what did the test say about CC(C)C(C)/C=C/C(C)[C@H]1CCC2C3=CCC4CC(=O)CC[C@]4(C)C3CC[C@@]21C (stereo partly specified) ?
inactive

Look up the recorded call for COC(=O)C(O)c1ccccc1 (stereo unspecified) in this test.
inactive

Hello, I am checking results. What call was entered for "Cc1c(S(=O)(=O)O)oc2c1C(=O)C(=O)c1c-2ccc2c1CCCC2(C)C" ?
active

# outcome recorded in this test, key = "CC(C)NC[C@H](O)COc1cccc2ccccc12"
inactive

Recorded test call requested for "CN1C(C(=O)Nc2ccccn2)=C(O)c2ccccc2S1(=O)=O"
inactive

Which outcome did this test record for the compound Nc1ccn(C2O[C@H](CO)[C@@H](O)[C@@H]2O)c(=O)n1 (stereo partly specified) ?
inactive

How was "C=C1C(=O)O[C@@H]2C[C@@]3(C)CCC[C@H](C)C3=C[C@H]12" classified in this test?
active

Name the outcome recorded for CC(=O)OC1CCC2(C)C(=CC=C3C2CCC2(C)C3CCC2C(C)/C=C/C(C)C(C)C)C1(C)C (stereo unspecified) in the assay.
inactive
